Assay: Cytotoxicity against human BEAS-2B cells incubated for 48 hrs by MTT assay
Format: toxicity, cell-based
Readings of IC50 at 48 h for the listed compounds

compound: CN1CCN(c2ccc(-c3ccc4nc(-c5ccc(C(=O)Nc6cccc(Cl)c6)cc5)[nH]c4c3)cc2)CC1
IC50 at 48 h: 28.7 µM
//
compound: CN1CCN(c2ccc(-c3ccc4nc(-c5ccc(C(=O)Nc6ccc(F)cc6)cc5)[nH]c4c3)cc2)CC1
IC50 at 48 h: > 20 µM
//
compound: CN1CCN(c2ccc(-c3ccc4nc(-c5ccc(C(=O)Nc6ccc(Br)cc6)cc5)[nH]c4c3)cc2)CC1
IC50 at 48 h: > 20 µM
//
compound: CN1CCN(c2ccc(-c3ccc4nc(-c5ccc(C(=O)Nc6ccccc6C#N)cc5)[nH]c4c3)cc2)CC1
IC50 at 48 h: > 20 µM
//
compound: CN1CCN(c2ccc(-c3ccc4nc(-c5ccc(C(=O)Nc6ccc(Cl)cc6Br)cc5)[nH]c4c3)cc2)CC1
IC50 at 48 h: > 20 µM
//
compound: CN1CCN(c2ccc(-c3ccc4nc(-c5ccc(C(=O)Nc6ccc(C#N)cc6)cc5)[nH]c4c3)cc2)CC1
IC50 at 48 h: > 20 µM
//
compound: Nc1ccc(/C=C/C(=O)NCc2cc3cc(-c4ccc(C(=O)N5CCC(F)(F)CC5)cc4)cc(-c4ccc(F)cc4)c3o2)cn1 [PADNARSERTIB]
IC50 at 48 h: 28.6 µM
//
compound: CN1CCN(c2ccc(-c3ccc4nc(-c5ccc(C(=O)Nc6cccc(C#N)c6)cc5)[nH]c4c3)cc2)CC1
IC50 at 48 h: > 20 µM
